# TARGET OF ASSAY: skeletal myofibrils (Rabbit Psoas), myosin ATPase activity
# Construct: Rabbit Psoas Prep 11 (0.25 mg/mL)
# TEST PROTOCOL: Skeletal Myofibril ATPase Assay
# CONDITION PARAMETERS: skeletal myofibrils (Rabbit Psoas 0.25 mg/mL), PK/LDH-coupled NADH absorbance at 340 nm
PROPERTY: IC50

Study these solved cases before continuing.
NC(=O)c1ccc(-c2ccc(=O)n(Cc3ccc(Cl)cc3)n2)cc1    10 to 100 µM
O=c1ccc(-c2ccc(OCC(F)(F)F)cc2)nn1Cc1ccc(Cl)cc1    < 10 µM
O=c1ccc(-c2cnc(N3CC4(C3)CC(F)(F)C4)nc2)nn1Cc1ccc(Cl)cc1    < 10 µM
N#CCOc1ccc(-c2ccc(=O)n(Cc3ccc(Cl)cc3)n2)cc1    < 10 µM
C[C@@H](c1ccccc1)n1nc(-c2ccc(Cl)cc2)ccc1=O    > 100 µM

Prompt: Need IC50 of "O=c1ccc(-c2ccc(Cl)cc2)nn1Cc1ccccc1F" , thanks.
Completion: < 10 µM

Prompt: I am curious: what IC50 value has been reported for "O=c1ccc(-c2cnc(OCC(F)(F)F)nc2)nn1Cc1ccccc1" ?
Completion: < 10 µM

* * *

Quick reference: pIC50 of the listed items.
# TARGET OF ASSAY: skeletal myofibrils (Rabbit Psoas), myosin ATPase activity
# Construct: Rabbit Psoas Prep 11 (0.25 mg/mL)
# TEST PROTOCOL: Skeletal Myofibril ATPase Assay
# CONDITION PARAMETERS: skeletal myofibrils (Rabbit Psoas 0.25 mg/mL), PK/LDH-coupled NADH absorbance at 340 nm
# Method: Overview: Myosin ATPase activity is assessed by using a coupled reaction system, in which ADP generated by the myosin ATPase function is coupled to the disappearance of NADH through the pyruvate kinase/lactate dehydrogenase (PK-LDH) system. Myosin ATPase activity produces ADP, which is used as a substrate for PK to produce pyruvate and regenerate ATP. […] The rate of the reaction is monitored through the time-dependent disappearance of NADH using absorbance at 340 nm. […]
pIC50: −log10 of the molar value.

// below: answered compounds
O=c1ccc(-c2ccc3scnc3c2)nn1Cc1ccc(Cl)cc1 [Compound 117]    < 4.00
CC1Cc2cc(-c3ccc(=O)n(Cc4ccc(Cl)cc4)n3)ccc2O1 (stereo not shown) [Compound 109]    > 5.00
O=c1ccc(-c2cnc(OCC(F)(F)F)nc2)nn1Cc1ccc(F)c(F)c1 [Compound 42]    > 5.00
CC1(C)C(=O)Nc2ccc(-c3ccc(=O)n(Cc4ccc(Cl)cc4)n3)cc21 [Compound 121]    < 4.00
O=C1CCCN1c1ncc(-c2ccc(=O)n(Cc3ccc(Cl)cc3)n2)cn1 [Compound 45]    4.00 to 5.00

Prompt: Field request: pIC50 | item: C[C@H]1Cc2cc(-c3ccc(=O)n(Cc4ccc(Cl)cc4)n3)ccc2O1 [Compound 110]
Completion: > 5.00

* * *

# TARGET OF ASSAY: skeletal myofibrils (Rabbit Psoas), myosin ATPase activity
# Construct: Rabbit Psoas Prep 11 (0.25 mg/mL)
# TEST PROTOCOL: Skeletal Myofibril ATPase Assay
# CONDITION PARAMETERS: skeletal myofibrils (Rabbit Psoas 0.25 mg/mL), PK/LDH-coupled NADH absorbance at 340 nm
pIC50: −log10 of the molar value.
PROPERTY: pIC50

C=Cc1ccc(Cn2nc(-c3ccc(OC)cc3F)ccc2=O)cc1    < 4.00
O=c1ccc(-c2ccc(Br)cc2)nn1Cc1ccccc1    > 5.00

Prompt: Can you look up the measured pIC50 of "O=c1ccc(-c2ccc(C3CC3)cc2)nn1Cc1ccc(Cl)cc1" for me?
Completion: > 5.00

Prompt: Could you tell me which pIC50 is on file for "COc1ccc(Cn2nc(-c3ccc(SC)cc3)ccc2=O)cc1" ?
Completion: < 4.00
